Hey, just so you know, these numbers are from paper PMC6271338.

system: HeLa cells; assay: In vitro anti-proliferative SRB assay, HeLa; assay type: cell-based, human; settings: selectivity index, L02 vs HeLa

# STRUCTURE AS SMILES, EXPERIMENTAL SYSTEM, COMPARATIVE SIGN, SI (CC50 L02/IC50 Hela)
records = [
    ("COc1cccc(OC)c1/C=C/C(=O)c1ccc(Cl)cc1", "HeLa cells", "=", 4.6),
    ("COc1cccc(OC)c1/C=C/C(=O)c1ccc(C)c(C)c1", "HeLa cells", "=", 1.2),
    ("COc1cccc(OC)c1/C=C/C(=O)c1ccccc1F", "HeLa cells", ">", 4.3),
    ("CCOc1cc(OC)ccc1C(=O)/C=C/c1c(OC)cccc1OC", "HeLa cells", "=", 1.3),
    ("COc1cccc(OC)c1/C=C/C(=O)c1ccc(-c2ccccc2)cc1", "HeLa cells", "=", 16.7),
    ("COc1cccc(OC)c1/C=C/C(=O)c1ccc(O)cc1O", "HeLa cells", "=", 1.4),
    ("COc1cccc(OC)c1/C=C/C(=O)c1cccc(N)c1", "HeLa cells", "=", 6.0),
    ("COc1ccc(C(=O)/C=C/c2c(OC)cccc2OC)c(O)c1", "HeLa cells", ">", 5.9),
    ("COc1cccc(OC)c1/C=C/C(=O)c1cccc(C(F)(F)F)c1", "HeLa cells", ">", 3.4),
    ("COc1ccc(C(=O)/C=C/c2c(OC)cccc2OC)cc1OC", "HeLa cells", "=", 4.3),
    ("COc1cccc(OC)c1/C=C/C(=O)c1cccc(Br)c1", "HeLa cells", "=", 4.6),
    ("COc1cccc(OC)c1/C=C/C(=O)c1ccccc1OCc1ccccc1", "HeLa cells", "=", 10.6),
    ("COc1cc(C(=O)/C=C/c2c(OC)cccc2OC)ccc1O", "HeLa cells", ">", 54.6),
    ("COc1cccc(OC)c1/C=C/C(=O)c1ccc(Cl)c(Cl)c1", "HeLa cells", ">", 5.7),
    ("COc1cccc(OC)c1/C=C/C(=O)c1ccc(Cl)cc1Cl", "HeLa cells", ">", 6.4),
    ("COc1cccc(OC)c1/C=C/C(=O)c1cccc(C)c1", "HeLa cells", "=", 2.5),
    ("CCOc1ccc(C(=O)/C=C/c2c(OC)cccc2OC)cc1OC", "HeLa cells", "=", 8.9),
    ("COc1cccc(OC)c1/C=C/C(=O)c1ccc2c(c1)OCO2", "HeLa cells", "=", 3.8),
    ("CCOc1ccccc1C(=O)/C=C/c1c(OC)cccc1OC", "HeLa cells", "=", 4.5),
    ("COc1cccc(OC)c1/C=C/C(=O)c1ccccc1", "HeLa cells", "<", 1.1),
    ("CCOc1ccc(C(=O)/C=C/c2c(OC)cccc2OC)cc1", "HeLa cells", "=", 2.6),
    ("COc1ccccc1C(=O)/C=C/c1c(OC)cccc1OC", "HeLa cells", "=", 1.8),
    ("COc1cccc(OC)c1/C=C/C(=O)c1cccc(F)c1", "HeLa cells", "=", 3.5),
]

###

Form field: SI (CC50 HMLE/IC50 A549) (one value per entry).
System: A549 cells
Assay: In vitro anti-proliferative SRB assay, A549
Type: cell-based, human
Details: selectivity index, HMLE vs A549
Procedure: HepG2 and MCF7 cells were grown in the Eagle’s minimum essential medium with Earle’s balanced salts (MEM-EBSS) medium, HeLa, A549 and L02 cells were grown in Dulbecco’s Modified Eagle Media (DMEM), SW1990 cells were grown in RPMI-1640 medium, and HMLE cell were grown in DMEM/F-12 medium. […] Cells were seeded into 96-well plates (4000 cells/well) and incubated at 37 °C in a humidified 5% CO2 atmosphere. […] Cell viability was evaluated using the sulforhodamine B (SRB) assay as previous described.

# STRUCTURE AS SMILES, EXPERIMENTAL SYSTEM, COMPARATIVE SIGN, SI (CC50 HMLE/IC50 A549)
records = [
    ("CCOc1ccc(C(=O)/C=C/c2c(OC)cccc2OC)cc1", "A549 cells", "=", 0.6),
    ("COc1cccc(C(=O)/C=C/c2c(OC)cccc2OC)c1", "A549 cells", "=", 0.6),
    ("COc1cccc(OC)c1/C=C/C(=O)c1ccc(C)cc1", "A549 cells", "=", 0.6),
    ("COc1cccc(OC)c1/C=C/C(=O)c1cccc(Cl)c1", "A549 cells", "=", 0.6),
    ("CCOc1ccccc1C(=O)/C=C/c1c(OC)cccc1OC", "A549 cells", "=", 0.1),
    ("CCOc1ccc(C(=O)/C=C/c2c(OC)cccc2OC)cc1OC", "A549 cells", "=", 1.6),
    ("COc1cc(C(=O)/C=C/c2c(OC)cccc2OC)ccc1O", "A549 cells", "=", 4.2),
    ("COc1ccc(C(=O)/C=C/c2cc(OC)cc(OC)c2)cc1", "A549 cells", "=", 0.2),
    ("COc1cccc(OC)c1/C=C/C(=O)c1ccc(-c2ccccc2)cc1", "A549 cells", "=", 1.3),
    ("COc1cccc(OC)c1/C=C/C(=O)c1cccc(O)c1", "A549 cells", "=", 0.5),
    ("COc1cccc(OC)c1/C=C/C(=O)c1ccc(Cl)c(Cl)c1", "A549 cells", "=", 1.0),
    ("COc1ccc(C(=O)/C=C/c2c(OC)cccc2OC)c(O)c1", "A549 cells", "=", 0.9),
    ("COc1ccc(OC)c(C(=O)/C=C/c2c(OC)cccc2OC)c1", "A549 cells", "=", 0.6),
    ("COc1cccc(OC)c1/C=C/C(=O)c1ccc2c(c1)CCO2", "A549 cells", "=", 0.7),
    ("COc1cccc(OC)c1/C=C/C(=O)c1ccc2c(c1)OCO2", "A549 cells", "=", 0.7),
    ("COc1cccc(OC)c1/C=C/C(=O)c1ccc(Cl)cc1", "A549 cells", "<", 0.6),
    ("COc1cccc(OC)c1/C=C/C(=O)c1ccccc1C", "A549 cells", "=", 0.6),
    ("COc1cccc(OC)c1/C=C/C(=O)c1ccc(Cl)cc1Cl", "A549 cells", "<", 0.7),
    ("COc1cccc(OC)c1/C=C/C(=O)c1ccccc1OCc1ccccc1", "A549 cells", "=", 5.8),
    ("CCOc1cccc(C(=O)/C=C/c2c(OC)cccc2OC)c1", "A549 cells", "=", 0.7),
    ("COc1cccc(OC)c1/C=C/C(=O)c1cccc(N)c1", "A549 cells", "=", 1.6),
    ("COc1cccc(OC)c1/C=C/C(=O)c1ccccc1", "A549 cells", "<", 0.3),
    ("COc1cccc(OC)c1/C=C/C(=O)c1ccc(O)cc1O", "A549 cells", ">", 5.8),
    ("COc1cccc(OC)c1/C=C/C(=O)c1ccc(F)cc1", "A549 cells", "<", 0.4),
    ("COc1cccc(OC)c1/C=C/C(=O)c1cccc(F)c1", "A549 cells", "=", 0.4),
    ("COc1cccc(OC)c1/C=C/C(=O)c1cccc(OCc2ccccc2)c1", "A549 cells", "=", 2.4),
    ("COc1cccc(OC)c1/C=C/C(=O)c1ccc(C#N)cc1", "A549 cells", "<", 0.4),
    ("CCOc1cc(OC)ccc1C(=O)/C=C/c1c(OC)cccc1OC", "A549 cells", "=", 1.0),
    ("COc1ccccc1C(=O)/C=C/c1c(OC)cccc1OC", "A549 cells", "=", 0.6),
    ("COc1cccc(OC)c1/C=C/C(=O)c1cccc(C)c1", "A549 cells", "=", 0.8),
]
